B1: NELF-E aptamer (parent)
chain: CCCAACGACUGCCGAGCGAGAUUACGCUUGAGCGCCCCACUGAGGAUGCCCACGGGCGAUUGGGGCACGG

Variants of: B1
procedure_summary: HiTS-RAP
measurement_context: with NELF-E (Drosophila)
pKd: −log10 of the molar value.
Hi, to clarify the labels: fulfilled covers pKd from 8 upward, not fulfilled covers anything below 8.

| sequence_code | answer_label |
| --- | --- |
| CCCAACUACUGCCGAGCGAGAUUAGGCUUGAGCGCCCCACUGAGGAUGCCCACGGGCGAUUGGGGCACGG | fulfilled |
| CCCAACGACUGCCGAGCGAGAGUACGCUUGAGCGCCCCACUGAGGAUGCCCACGGGCGUUUGGGGCACGG | not fulfilled |
| CCCAAGGACUGCCGAGCGAGAUUACGCUUGAGCGCCCCACUGAGGAUGUCCACGGGCGAUUGGGGCACGG | not fulfilled |

I'd appreciate it if you could say whether `CCCAACGACUGUCGAGCGGGAUUACGCUUGAGCGCCCCACUGAGGAUGCCCACGGGCGAUUGGGGCACGG` has pKd at least equal to 8.
fulfilled

Would you say `CCCAACAACUGCCGAUCGAGAUUACGCUUGAGCGCCCCACUGAGGAUGCCCACGGGCGAUUGGGGCACGG` shows pKd at minimum 8?
fulfilled

hey, is pKd for this one >= 8? `CCCAACGACUGCCGAGCGAGAUUACGCUGGAGCGCCCCACGGAGGAUGCCCACGGGCGAUUGGGGCACGG`
fulfilled
